- Tested on: human G12D mutant KRAS-positive pancreatic cancer line AsPC-1
- Test Description: Non-anchorage-dependent cell growth inhibition, spheroid 3D cell culture (Test Example 3)
- Assay type: cell-based
- Measurement Parameters: Homo sapiens, ASPC1, 144 h, AsPC-1 spheroid 3D culture, 6 days, CellTiter Glo 2.0
pIC50: −log10 of the molar value.
Attribute Measured: pIC50

Here's what some known entries look like.
{"Compound": "Cc1ncsc1-c1ccc([C@H](CO)NC(=O)[C@@H]2C[C@@H](O)CN2C(=O)[C@H](C(C)C)n2cc(-c3ccc(COc4c(-c5c(C)c(F)cc6[nH]ncc56)c(C5CC5)cc5c(N(C)[C@H]6CCNC6)nc(OC[C@H]6CCN(C)C6)nc45)cc3)nn2)cc1 (atropisomer, axis not shown)", "pIC50": 7.14}
{"Compound": "Cc1ncsc1-c1ccc([C@H](CO)NC(=O)[C@@H]2C[C@@H](O)CN2C(=O)[C@H](C(C)C)n2cc(-c3ccc(COc4c(-c5c(C)c(F)cc6[nH]ncc56)c(C5CC5)cc5c(N(C)[C@H]6CCNC6)nc(OC[C@H]6CCCO6)nc45)cc3)nn2)cc1 (atropisomer, axis not shown; (M))", "pIC50": 8.05}

[I] Cc1c(F)cc2[nH]ncc2c1-c1c(C2CC2)cc2c(N(C)[C@H]3CCNC3)nc(OC[C@H]3CCCO3)nc2c1OCc1ccc(-c2cn([C@H](C(=O)N3C[C@H](O)C[C@H]3C(=O)N[C@@H](CO)c3ccc(-n4ccnc4C)cc3)C(C)C)nn2)cc1 (atropisomer, axis not shown)
[II] CO[C@@H](C)COc1nc(N(C)[C@H]2CCNC2)c2cc(C3CC3)c(-c3c(C)c(F)cc4[nH]ncc34)c(OCc3ccc(-c4cn([C@H](C(=O)N5C[C@H](O)C[C@H]5C(=O)N[C@@H](CO)c5ccc(-n6cncn6)cc5)C(C)C)nn4)cc3)c2n1 (atropisomer, axis not shown)
Q) Please state the entry with greater pIC50 among I and II . # reply format: chosen label
A) II
(II: 8.22, I: 7.92)

---

- System Under Test: KRAS G12D protein (Homo sapiens, UniProt P01116, G12D)
- Construct: host or cells: AsPC-1
- Sequence (P01116 1-188 isoform P01116-2 G12D): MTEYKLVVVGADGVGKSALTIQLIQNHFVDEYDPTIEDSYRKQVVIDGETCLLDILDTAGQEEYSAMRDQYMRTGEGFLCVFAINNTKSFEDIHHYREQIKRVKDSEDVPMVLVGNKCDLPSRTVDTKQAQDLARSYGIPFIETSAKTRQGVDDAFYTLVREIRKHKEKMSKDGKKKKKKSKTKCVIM
- Test Description: KRAS degradation activity by Cell ELISA in AsPC-1 (Test Example 1)
- Assay type: cell-based
- Measurement Parameters: AsPC-1 cells, cultured overnight with compound, corrected with β-actin, read-out: DC50 (50% degradation concentration of the amounts of KRAS)
- Protocol: Test Example 1: Evaluation of KRAS Degradation Activity on Human G12D Mutant KRAS-Positive Pancreatic Cancer Line AsPC-1 (CRL-1682; ATCC) The KRAS degradation activity of test compounds was evaluated by measuring the expression levels of KRAS G12D protein by Cell ELISA. AsPC-1 cells were seeded at 20 μL per well on 384-well plates (from Greiner bio-one) to give 2.0×10^4 cells per well. […]
Attribute Measured: DC50 (nM)

Record excerpt, results attached:
{"Compound": "Cc1ncsc1-c1ccc([C@H](CO)NC(=O)[C@@H]2C[C@@H](O)CN2C(=O)[C@H](C(C)C)n2cc(-c3ccc(COc4c(-c5c(C)c(F)cc6[nH]ncc56)c(C5CC5)cc5c(OC6CNC6)nc(OC6CCOCC6)nc45)cc3)nn2)cc1 (atropisomer, axis not shown; (M))", "Endpoint Unit": "nM", "DC50": 20}
{"Compound": "CO[C@@H](C)COc1nc(N(C)[C@H]2CCNC2)c2cc(C3CC3)c(-c3c(C)c(F)cc4[nH]ncc34)c(OCc3ccc(-c4cn([C@H](C(=O)N5C[C@H](O)C[C@H]5C(=O)N[C@@H](CO)c5ccc(-c6ocnc6C)cc5)C(C)C)nn4)cc3)c2n1 (atropisomer, axis not shown)", "Endpoint Unit": "nM", "DC50": 20}
{"Compound": "Cc1ncsc1-c1ccc([C@H](CO)NC(=O)[C@@H]2C[C@@H](O)CN2C(=O)[C@H](C(C)C)n2cc(-c3ccc(COc4c(-c5c(C)c(F)cc6[nH]ncc56)c(C5CC5)cc5c(N(C)[C@H]6CCNC6)nc(OC[C@@H]6CCOC6)nc45)cc3)nn2)cc1 (atropisomer, axis not shown)", "Endpoint Unit": "nM", "DC50": 31}
{"Compound": "Cc1c(F)cc2[nH]ncc2c1-c1c(C2CC2)cc2c(N(C)[C@H]3CCNC3)nc(OC[C@H]3CCCO3)nc2c1OCc1ccc(-c2cn([C@H](C(=O)N3C[C@H](O)C[C@H]3C(=O)N[C@@H](CO)c3ccc(-n4cncn4)cc3)C(C)C)nn2)cc1 (atropisomer, axis not shown)", "Endpoint Unit": "nM", "DC50": 29}
{"Compound": "CO[C@@H](C)COc1cc(N2C[C@@H]3C[C@H]2CN3)c2cc(C3CC3)c(-c3c(C)c(F)cc4[nH]ncc34)c(OCc3ccc(-c4cn([C@H](C(=O)N5C[C@H](O)C[C@H]5C(=O)N[C@@H](CO)c5ccc(-c6scnc6C)cc5)C(C)C)nn4)cc3)c2n1", "Endpoint Unit": "nM", "DC50": 10}
{"Compound": "COCCCOc1nc(N(C)[C@H]2CCNC2)c2cc(C3CC3)c(-c3c(C)c(F)cc4[nH]ncc34)c(OCc3ccc(-c4cn([C@H](C(=O)N5C[C@H](O)C[C@H]5C(=O)N[C@@H](CO)c5ccc(-c6scnc6C)cc5)C(C)C)nn4)cc3)c2n1 (atropisomer, axis not shown)", "Endpoint Unit": "nM", "DC50": 37}
{"Compound": "Cc1ncsc1-c1ccc([C@H](CO)NC(=O)[C@@H]2C[C@@H](O)CN2C(=O)[C@H](C(C)C)n2cc(-c3ccc(COc4c(-c5c(C)c(F)cc6[nH]ncc56)c(C5CC5)cc5c(N(C)[C@H]6CCNC6)nc(OC[C@@H](C)F)nc45)cc3)nn2)cc1 (atropisomer, axis not shown)", "Endpoint Unit": "nM", "DC50": 38}
{"Compound": "CO[C@@H](CF)COc1nc(N(C)[C@H]2CCNC2)c2cc(C3CC3)c(-c3c(C)c(F)cc4[nH]ncc34)c(OCc3ccc(-c4cn([C@H](C(=O)N5C[C@H](O)C[C@H]5C(=O)N[C@@H](CO)c5ccc(-c6scnc6C)cc5)C(C)C)nn4)cc3)c2n1 (atropisomer, axis not shown)", "Endpoint Unit": "nM", "DC50": 26}

[P] CO[C@@H](C)COc1nc(N2CCNCC2)c2cc(C3CC3)c(-c3c(C)c(F)cc4[nH]ncc34)c(OCc3ccc(-c4cn([C@H](C(=O)N5C[C@H](O)C[C@H]5C(=O)N[C@@H](CO)c5ccc(-c6scnc6C)cc5)C(C)C)nn4)cc3)c2n1 (atropisomer, axis not shown)
[Q] CO[C@@H](C)COc1nc(O[C@H]2CCNC2)c2cc(C3CC3)c(-c3c(C)c(F)cc4[nH]ncc34)c(OCc3ccc(-c4cn([C@H](C(=O)N5C[C@H](O)C[C@H]5C(=O)N[C@@H](CO)c5ccc(-c6scnc6C)cc5)C(C)C)nn4)cc3)c2n1 (atropisomer, axis not shown)
Q) Pick the one with the larger DC50: P vs Q Identify your selection by its label.
A) P

---

- System Under Test: KRAS G12D protein (Homo sapiens, UniProt P01116, G12D)
- Construct: host or cells: AsPC-1
- Test Description: KRAS degradation activity by Cell ELISA in AsPC-1 (Test Example 1)
- Format: cell-based
- Measurement Parameters: AsPC-1 cells, cultured overnight with compound, corrected with β-actin, read-out: DC50 (50% degradation concentration of the amounts of KRAS)
Attribute Measured: DC50 (nM)

Look over these answered cases.
{"Molecule": "Cc1ncsc1-c1ccc([C@H](CO)NC(=O)[C@@H]2C[C@@H](O)CN2C(=O)[C@H](C(C)C)n2cc(-c3ccc(COc4c(-c5c(C)c(F)cc6[nH]ncc56)c(C5CC5)cc5c(N(C)[C@H]6CCNC6)nc(OC[C@@H]6CCCO6)nc45)cc3)nn2)cc1 (atropisomer, axis not shown; (M))", "Meas Value": 18}
{"Molecule": "Cc1ncsc1-c1ccc([C@H](CO)NC(=O)[C@@H]2C[C@@H](O)CN2C(=O)[C@H](C(C)C)n2cc(-c3ccc(COc4c(-c5c(C)c(F)cc6[nH]ncc56)c(C5CC5)cc5c(N(C)[C@H]6CCNC6)nc(OCCCF)nc45)cc3)nn2)cc1 (atropisomer, axis not shown)", "Meas Value": 25}
{"Molecule": "CO[C@@H](C)COc1cc(O[C@H]2CCNC2)c2cc(C3CC3)c(-c3c(C)c(F)cc4[nH]ncc34)c(OCc3ccc(-c4cn([C@H](C(=O)N5C[C@H](O)C[C@H]5C(=O)N[C@@H](CO)c5ccc(-c6scnc6C)cc5)C(C)C)nn4)cc3)c2n1", "Meas Value": 59}
{"Molecule": "CO[C@@H](C)COc1nc(N(C)[C@H]2CCNC2)c2cc(C3CC3)c(-c3c(C)c(F)cc4[nH]ncc34)c(OCc3ccc(-c4cn([C@H](C(=O)N5C[C@H](O)C[C@H]5C(=O)N[C@@H](CO)c5ccc(-n6ccnc6C)cc5)C(C)C)nn4)cc3)c2n1 (atropisomer, axis not shown)", "Meas Value": 33}
{"Molecule": "COCC1(COc2nc(N(C)[C@H]3CCNC3)c3cc(C4CC4)c(-c4c(C)c(F)cc5[nH]ncc45)c(OCc4ccc(-c5cn([C@H](C(=O)N6C[C@H](O)C[C@H]6C(=O)N[C@@H](CO)c6ccc(-c7scnc7C)cc6)C(C)C)nn5)cc4)c3n2)CC1 (atropisomer, axis not shown)", "Meas Value": 25}
{"Molecule": "CO[C@H](CF)COc1nc(N(C)[C@H]2CCNC2)c2cc(C3CC3)c(-c3c(C)c(F)cc4[nH]ncc34)c(OCc3ccc(-c4cn([C@H](C(=O)N5C[C@H](O)C[C@H]5C(=O)N[C@@H](CO)c5ccc(-c6scnc6C)cc5)C(C)C)nn4)cc3)c2n1 (atropisomer, axis not shown)", "Meas Value": 25}

[P] Cc1c(F)cc2[nH]ncc2c1-c1c(C2CC2)cc2c(N(C)[C@H]3CCNC3)nc(OC[C@H]3CCCO3)nc2c1OCc1ccc(-c2cn([C@H](C(=O)N3C[C@H](O)C[C@H]3C(=O)N[C@@H](CO)c3ccc(-n4ccnc4C)cc3)C(C)C)nn2)cc1 (atropisomer, axis not shown)
[Q] Cc1ncsc1-c1ccc([C@H](CO)NC(=O)[C@@H]2C[C@@H](O)CN2C(=O)[C@H](C(C)C)n2cc(-c3ccc(COc4c(-c5c(C)c(F)cc6[nH]ncc56)c(C5CC5)cc5c(N(C)[C@H]6CCNC6)nc(OCC(C)C)nc45)cc3)nn2)cc1 (atropisomer, axis not shown)
Q) Given the listed records, identify the one among P and Q with higher DC50. // caller expects the label of the chosen entry
A) P

[1] Cc1ncsc1-c1ccc([C@H](CO)NC(=O)[C@@H]2C[C@@H](O)CN2C(=O)[C@H](C(C)C)n2cc(-c3ccc(COc4c(-c5c(C)c(F)cc6[nH]ncc56)c(C5CC5)cc5c(N(C)[C@H]6CCNC6)nc(OC[C@H](C)F)nc45)cc3)nn2)cc1 (atropisomer, axis not shown)
[2] Cc1ncsc1-c1ccc([C@H](CO)NC(=O)[C@@H]2C[C@@H](O)CN2C(=O)[C@H](C(C)C)n2cc(-c3ccc(COc4c(-c5c(C)c(F)cc6[nH]ncc56)c(C5CC5)cc5c(N(C)[C@H]6CCNC6)nc(OC6CCOCC6)nc45)cc3)nn2)cc1 (atropisomer, axis not shown)
Q) Field: lower DC50 | Options: 1 / 2 Mark your answer with the label of the selected entry.
A) 2
(2: 18 nM, 1: 63 nM)
